target: Sigma-1 (Rattus norvegicus)
Sequence (Q9R0C9 whole entry): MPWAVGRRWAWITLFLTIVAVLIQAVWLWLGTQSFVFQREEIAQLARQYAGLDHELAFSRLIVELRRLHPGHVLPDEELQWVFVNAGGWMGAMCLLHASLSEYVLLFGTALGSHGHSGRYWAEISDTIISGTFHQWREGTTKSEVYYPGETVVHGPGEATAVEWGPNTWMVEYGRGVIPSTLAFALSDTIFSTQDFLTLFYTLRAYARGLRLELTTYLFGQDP
assay: Competitive radioligand binding, [3H]
pKi: −log10 of the molar value.
endpoint-name: pKi

• CN[C@]1(c2ccccc2Cl)CCCCC1=O [(S)-ketamine] = 3.88

----------
target: MOR (Homo sapiens)
Sequence (P35372 whole entry): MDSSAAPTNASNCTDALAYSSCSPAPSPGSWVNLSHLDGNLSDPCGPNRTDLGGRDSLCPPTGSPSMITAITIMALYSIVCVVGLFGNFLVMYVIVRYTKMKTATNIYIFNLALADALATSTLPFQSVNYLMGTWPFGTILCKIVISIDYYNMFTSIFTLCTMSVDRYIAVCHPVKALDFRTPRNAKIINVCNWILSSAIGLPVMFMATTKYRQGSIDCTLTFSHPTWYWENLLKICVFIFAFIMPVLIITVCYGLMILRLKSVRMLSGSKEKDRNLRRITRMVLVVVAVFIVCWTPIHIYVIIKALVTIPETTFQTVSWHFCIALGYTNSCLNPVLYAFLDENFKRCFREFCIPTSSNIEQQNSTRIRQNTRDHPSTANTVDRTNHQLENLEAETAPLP
assay: cAMP accumulation BRET
Format: cell-based
experimental-setup: read-out: EC50 MOR, cAMP assay; HEK-293 transfected with MOR
pEC50: −log10 of the molar value.
endpoint-name: pEC50

* CN[C@@]1(c2ccccc2Cl)CCCCC1=O [(R)-ketamine] | 4.47

----------
target: UniProtKB P41145
Sequence (P41145 whole entry): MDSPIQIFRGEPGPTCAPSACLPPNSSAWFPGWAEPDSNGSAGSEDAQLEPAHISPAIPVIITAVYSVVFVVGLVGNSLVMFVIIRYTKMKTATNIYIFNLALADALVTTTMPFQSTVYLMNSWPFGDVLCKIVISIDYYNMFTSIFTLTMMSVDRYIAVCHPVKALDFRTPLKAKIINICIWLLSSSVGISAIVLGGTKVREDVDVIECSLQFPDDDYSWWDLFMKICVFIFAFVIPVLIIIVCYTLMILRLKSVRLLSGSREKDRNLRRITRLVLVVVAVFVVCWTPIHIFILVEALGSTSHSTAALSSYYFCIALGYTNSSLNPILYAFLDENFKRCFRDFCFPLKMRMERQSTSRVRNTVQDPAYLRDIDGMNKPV
assay: cAMP accumulation BRET
Format: cell-based
endpoint-name: EC50 (µM)

- CN[C@]1(c2ccccc2Cl)CCCCC1=O [(S)-ketamine]: 16

----------
target: Sigma-1 (Rattus norvegicus)
assay: Competitive radioligand binding, [3H]
experimental-setup: read-out: Ki sigma-1; rat whole brain, [3H](+)pentazocine
endpoint-name: Ki (µM)

* CN[C@@]1(c2ccccc2Cl)CCCCC1=O [(R)-ketamine] | 27
